system_under_test: recombinant human mGlu7 receptor (FAST-0154C) (Homo sapiens, UniProt Q14831)
Sequence (Q14831 35-915): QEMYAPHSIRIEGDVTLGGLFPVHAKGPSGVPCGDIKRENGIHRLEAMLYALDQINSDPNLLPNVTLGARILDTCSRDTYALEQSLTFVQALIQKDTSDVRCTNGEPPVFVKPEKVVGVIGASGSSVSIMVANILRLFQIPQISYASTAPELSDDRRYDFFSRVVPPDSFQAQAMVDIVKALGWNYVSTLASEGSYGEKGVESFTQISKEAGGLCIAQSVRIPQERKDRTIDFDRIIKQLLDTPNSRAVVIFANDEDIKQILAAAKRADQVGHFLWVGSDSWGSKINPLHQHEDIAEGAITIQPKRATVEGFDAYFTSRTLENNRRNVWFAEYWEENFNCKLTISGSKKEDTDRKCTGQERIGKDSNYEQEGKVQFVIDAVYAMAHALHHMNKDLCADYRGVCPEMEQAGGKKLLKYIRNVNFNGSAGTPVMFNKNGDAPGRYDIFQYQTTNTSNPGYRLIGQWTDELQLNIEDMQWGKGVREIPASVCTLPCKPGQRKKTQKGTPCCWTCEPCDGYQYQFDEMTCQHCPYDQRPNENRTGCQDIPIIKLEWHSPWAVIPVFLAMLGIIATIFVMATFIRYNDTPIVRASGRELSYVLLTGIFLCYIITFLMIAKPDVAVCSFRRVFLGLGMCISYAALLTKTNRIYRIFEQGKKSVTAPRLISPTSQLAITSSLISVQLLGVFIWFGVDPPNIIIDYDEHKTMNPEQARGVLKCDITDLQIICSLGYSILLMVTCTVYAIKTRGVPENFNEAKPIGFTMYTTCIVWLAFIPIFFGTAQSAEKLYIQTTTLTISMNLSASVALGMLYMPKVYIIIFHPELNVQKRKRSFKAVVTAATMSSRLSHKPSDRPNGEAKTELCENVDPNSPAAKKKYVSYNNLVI
experiment_description: NAM mGlu7 activity on CHO-K1 cell line, cAMP HTRF (EuroscreenFast protocol)
test_conditions: CHO-K1 human mGlu7, agonist L-AP4 at EC80; read-out: IC50 (CHO-K1, Figure S4)
Form field: pIC50 (one value per entry).
Scale: pIC50 equals -log10([C]), with [C] in mol/L.

The examples below pair each entry with its known result.
[
  {
    "compound": "CCc1nc2c(o1)CC(c1ccc(C)cc1C)CC2=O (stereo not shown) [ADX71743, reference compound]",
    "data_value": 6.37
  },
  {
    "compound": "COc1ccc(-c2cc3onc(-c4ccncc4)c3c(=O)n2C)cc1 [MMPIP, reference compound]",
    "data_value": 6.57
  }
]

Qu. For Cn1c(-c2ccccc2Cl)nc2ccc(-c3ccccc3)cc2c1=O [ALX-065] , write its pIC50.
Ans. 5.43

Qu. For COc1cccc(-c2ccc3nc(-c4ccccc4Cl)n(C)c(=O)c3c2)c1OC [ALX-171] , write its pIC50.
Ans. 5.25

----------
experiment_description: Pharmacokinetics of ALX-171 after i.v. and p.o. administration
Type: in vivo
test_conditions: mouse, iv; plasma, i.v. 3 mg/kg, female BALB/c mice
measurement_name: Tmax (min)
Note: unit min is implicit; provide only the numeric part.

Qu. For COc1cccc(-c2ccc3nc(-c4ccccc4Cl)n(C)c(=O)c3c2)c1OC , write its Tmax.
Ans. 15
